# testedTarget: Human GPR120 short form (short splice variant, NM_001195755.1) (Homo sapiens, UniProt Q5NUL3)
# Sequence (Q5NUL3 1-361): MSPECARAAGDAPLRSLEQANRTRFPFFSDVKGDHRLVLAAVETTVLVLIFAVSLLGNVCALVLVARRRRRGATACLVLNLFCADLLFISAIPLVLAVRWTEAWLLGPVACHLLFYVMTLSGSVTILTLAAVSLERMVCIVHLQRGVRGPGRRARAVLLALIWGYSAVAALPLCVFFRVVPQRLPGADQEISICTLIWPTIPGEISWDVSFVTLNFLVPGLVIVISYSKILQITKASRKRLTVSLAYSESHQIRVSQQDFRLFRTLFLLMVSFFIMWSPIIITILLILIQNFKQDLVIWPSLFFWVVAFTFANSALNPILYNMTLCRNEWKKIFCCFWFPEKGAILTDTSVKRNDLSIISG
# assayName: Human GPR120 Calcium Flux Assay
# appliedConditions: HEK-293 cells, 4200 cells/well, read-out: Human GPR120 Calcium Flux Assay Procedure B EC50
pEC50: −log10 of the molar value.
Criterion: pEC50 meeting or surpassing 6. Met: 1. Not met: -1.

Ask: Given "C=C(C1=C(COc2ccc(CCC(=O)O)c(C(F)(F)F)c2)COCC1)c1ccccc1" , state whether its pEC50 is at least 6.
Result: -1

Ask: Given "O=C(O)CCc1ccc(OCC2=C(C3CCCC3)COC2)cc1" , state whether its pEC50 is at least 6.
Result: 1

Ask: Given "Cc1ccc(CC2=C(COc3ccc(CCC(=O)O)c(C(F)(F)F)c3)COCC2)cc1" , state whether its pEC50 is at least 6.
Result: -1

Ask: Given "O=C(O)CCc1cc(F)c(OCC2=C(Cc3ccc(Cl)cc3)CCOC2)c(F)c1" , state whether its pEC50 is at least 6.
Result: -1

Ask: Given "CCC1=C(COc2ccc(CCC(=O)O)c(C(F)(F)F)c2)COCC1" , state whether its pEC50 is at least 6.
Result: -1

* * *

Hi there, I'd appreciate the recorded EC50 for every entry that follows.
# testedTarget: GPR40 (UniProt O14842)
# assayName: GPR40 Calcium Flux Assay
# appliedConditions: transfected HEK293 cells stably expressing human or rat GPR40; species not given
Please reply with the bare figure in µM and do not write the unit itself.

Ask: Tell me its EC50 on GPR40 (UniProt O14842): CCCCC1=C(COc2ccc(CCC(=O)O)c(C(F)(F)F)c2)COCC1 [compound 707]
Result: 0.326

Ask: Tell me its EC50 on GPR40 (UniProt O14842): CC(C)C1=C(COc2ccc(CCC(=O)O)c(C(F)(F)F)c2)COCC1 [compound 735]
Result: 0.492

Ask: Tell me its EC50 on GPR40 (UniProt O14842): COc1ccc(CC2=C(COc3ccc(CCC(=O)O)c(C(F)(F)F)c3)COCC2)cc1 [compound 698]
Result: 0.335

Ask: Tell me its EC50 on GPR40 (UniProt O14842): C=C(C1=C(COc2ccc(CCC(=O)O)cc2)COCC1)c1ccccc1 [compound 699]
Result: 1.74

* * *

Hi there, I'd appreciate the recorded pEC50 for every entry that follows.
# testedTarget: Human GPR120 short form (short splice variant, NM_001195755.1) (Homo sapiens, UniProt Q5NUL3)
# assayName: Human GPR120 Calcium Flux Assay
# appliedConditions: HEK-293 cells, 4200 cells/well, read-out: Human GPR120 Calcium Flux Assay Procedure B EC50
pEC50: −log10 of the molar value.

Ask: Name the recorded pEC50 of the molecule listed here: "Cc1cc(C)c(C2=C(COc3ccc(CCC(=O)O)c(C(F)(F)F)c3)COCC2)cc1C"
Result: < 5.30

Ask: Name the recorded pEC50 of the molecule listed here: "CC(C)CC1=C(COc2ccc(CCC(=O)O)c(Cl)c2)COCC1"
Result: < 5.30

Ask: Name the recorded pEC50 of the molecule listed here: "COc1cc(Cl)ccc1C1=C(COc2ccc(CCC(=O)O)c(C)c2C)COCC1"
Result: 5.66

Ask: Name the recorded pEC50 of the molecule listed here: "O=C(O)CCc1ccc(OCC2=C(c3cccc4c3OC(F)(F)O4)CCOC2)cc1C(F)(F)F"
Result: < 5.30

Ask: Name the recorded pEC50 of the molecule listed here: "Cc1cc(CCC(=O)O)ccc1OCC1=C(c2ccccc2)COC1"
Result: 6.64

Ask: Name the recorded pEC50 of the molecule listed here: "O=C(O)CCc1ccc(OCC2=C(c3ccc(OC(F)(F)F)cc3)CCOC2)cc1C(F)(F)F"
Result: < 5.30

Ask: Name the recorded pEC50 of the molecule listed here: "O=C(O)CCc1ccc(OCC2=C(CC3CCCCC3)CCOC2)cc1C(F)(F)F"
Result: < 5.30

Ask: Name the recorded pEC50 of the molecule listed here: "O=C(O)CCc1ccc(OCC2=C(Cc3ccc(Cl)cc3)CCOC2)cc1C(F)(F)F"
Result: < 5.30

* * *

# testedTarget: short form of the GPR120 receptor (Homo sapiens, UniProt Q5NUL3)
# assayName: Human GPR120 DiscoveRx PathHunter Beta-Arrestin Assay, Procedure B
# appliedConditions: PathHunter CHO-K1 GPR120S cells, 5000 cells/well
Hi there, I'd appreciate the recorded EC50 for every entry that follows.
Please reply with the bare figure in nM and do not write the unit itself.

Ask: Name the recorded EC50 of the molecule listed here: Cc1cc(CCC(=O)O)ccc1OCC1=C(c2ccc(Cl)cc2)COCC1 [compound 753]
Result: 296

Ask: Name the recorded EC50 of the molecule listed here: O=C(O)CCc1ccc(OCC2=C(c3ccc(Cl)cc3)CCOC2)cc1C(F)(F)F [compound 646]
Result: 3650

Ask: Name the recorded EC50 of the molecule listed here: Cc1cc(CCC(=O)O)ccc1OCC1=C(c2ccc(F)cc2)CSC1 [compound 625]
Result: 110

Ask: Name the recorded EC50 of the molecule listed here: Cc1c(CCC(=O)O)ccc(OCC2=C(c3ccc(Cl)cc3)CCOC2)c1C [compound 641]
Result: 204

Ask: Name the recorded EC50 of the molecule listed here: O=C(O)CCc1cc(F)c(OCC2=C(c3ccc(Cl)cc3)CCOC2)c(F)c1 [compound 642]
Result: 623

Ask: Name the recorded EC50 of the molecule listed here: Cc1c(CCC(=O)O)ccc(OCC2=C(c3ccc(F)cc3)CCOC2)c1C [compound 650]
Result: 658

Ask: Name the recorded EC50 of the molecule listed here: Cc1c(CCC(=O)O)ccc(OCC2=C(c3ccc(F)c(F)c3)CCOC2)c1C [compound 658]
Result: 169

Ask: Name the recorded EC50 of the molecule listed here: Cc1c(CCC(=O)O)ccc(OCC2=C(c3ccc(Cl)cc3)COCC2)c1C [ID No. 745]
Result: 243

Ask: Name the recorded EC50 of the molecule listed here: Cc1cc(CCC(=O)O)ccc1OCC1=C(c2ccc(Cl)cc2)CCOC1 [compound 645]
Result: 275

Ask: Name the recorded EC50 of the molecule listed here: COc1ccc(C2=C(COc3ccc(CCC(=O)O)c(C)c3C)COCC2)cc1 [compound 647]
Result: 740

* * *

# testedTarget: GPR40 (UniProt O14842)
# assayName: GPR40 Calcium Flux Assay
# appliedConditions: transfected HEK293 cells stably expressing human or rat GPR40; species not given
Hi there, I'd appreciate the recorded pEC50 for every entry that follows.
The scale used: pEC50 is minus the common logarithm of the concentration in molar units.

Ask: Tell me its pEC50 on GPR40 (UniProt O14842): "Cc1ccc(C2=C(COc3ccc(CCC(=O)O)c(C(F)(F)F)c3)COCC2)c(F)c1"
Result: 5.57

Ask: Tell me its pEC50 on GPR40 (UniProt O14842): CC(C1=C(COc2ccc(CCC(=O)O)c(C(F)(F)F)c2)COCC1)c1ccccc1 (stereo not drawn)
Result: 6.84

Ask: Tell me its pEC50 on GPR40 (UniProt O14842): "CC(C)CC1=C(COc2ccc(CCC(=O)O)c(C(F)(F)F)c2)COCC1"
Result: 6.88

Ask: Tell me its pEC50 on GPR40 (UniProt O14842): "O=C(O)CCc1ccc(OCC2=C(CC3CCCCC3)CCOC2)cc1C(F)(F)F"
Result: 5.85

Ask: Tell me its pEC50 on GPR40 (UniProt O14842): "CCC1=C(COc2ccc(CCC(=O)O)c(C(F)(F)F)c2)COCC1"
Result: 6.24

Ask: Tell me its pEC50 on GPR40 (UniProt O14842): "O=C(O)CCc1ccc(OCC2=C(C3CCCC3)CCOCC2)cc1"
Result: 5.58

Ask: Tell me its pEC50 on GPR40 (UniProt O14842): "O=C(O)CCc1ccc(OCC2=C(Cc3ccc(Cl)cc3)CCOC2)cc1Cl"
Result: 5.64

Ask: Tell me its pEC50 on GPR40 (UniProt O14842): "O=C(O)CCc1ccc(OCC2=C(Cc3ccccc3)CCOC2)cc1Cl"
Result: 6.15
